Collected from the literature: Ki of various compounds toward Sodium-dependent noradrenaline transporter (Homo sapiens).

The examples below pair each entry with its known result.
Clc1ccccc1O[C@H](C1CC1)[C@H]1CCNC1 | ≤ 10 nM
CC[C@H](Oc1c(F)cc(Cl)cc1F)[C@H]1CCNC1 | ≤ 10 nM
CCOc1ccc(-n2nc3c(N(CCO)Cc4cccnc4)nnc(C)c3c2C)c(F)c1 | > 1000 nM
Cc1ccc(Cl)c(O[C@@H](C2CC2)[C@H]2CCNC2)c1F | ≤ 10 nM
CNCCC(Oc1cccc(-c2cnc(C)nc2)c1)c1cccs1 (stereo not shown) | ≥ 1000 nM

Exercise: Query the reported Ki for Sodium-dependent noradrenaline transporter (Homo sapiens); item: Cc1ccc(OC[C@H]2CCCNC2)c(Oc2ccc(Cl)c(F)c2)n1
Key: 8.4 nM

Exercise: Query the reported Ki for Sodium-dependent noradrenaline transporter (Homo sapiens); item: O=C(O)/C=C/C(=O)O.c1ccc(CCOc2ncccc2OC[C@H]2CCCNC2)cc1
Key: 210 nM

Exercise: Query the reported Ki for Sodium-dependent noradrenaline transporter (Homo sapiens); item: CCC[C@@H](Oc1ccc(Cl)cc1Cl)[C@@H]1CCNC1
Key: ≤ 100 nM

* * *

Collected from the literature: Ki of various molecules toward Sodium-dependent noradrenaline transporter (Homo sapiens).

CC(C)CC(Oc1c(Cl)ccc(Cl)c1F)C1CCNC1 (stereo not drawn) | ≤ 10 nM
COc1ccc(-c2ccccc2CO[C@H]2CCNC2)c(OC)c1 | ≥ 10000 nM
CNCCC(Oc1cccc(-c2ccncn2)c1)c1ccccc1 (stereo not drawn) | 500 to 1000 nM
Cc1ccc(O[C@@H](C2CC2)[C@H]2CCNC2)c(Cl)c1 | ≤ 10 nM
Cc1ccc(Oc2ncccc2OC[C@H]2CCCNC2)cc1C.O=C(O)/C=C/C(=O)O | 7 nM
CCC[C@H](Oc1ccc(Cl)cc1Cl)[C@H]1CCNC1 | ≤ 10 nM
CC(C)C[C@H](Oc1ccc(Cl)cc1)[C@@H]1CCNC1 | ≤ 100 nM
CCC[C@@H](Oc1cccc(Cl)c1C)[C@@H]1CCNC1 | ≤ 10 nM

Let's switch to this molecule now.
Exercise: Query the reported Ki for Sodium-dependent noradrenaline transporter (Homo sapiens); item: CNCC[C@@H](Oc1cccc(-c2ccnc(N[C@H]3CCNC3)n2)c1)c1ccccc1
Key: 500 to 1000 nM

* * *

Collected from the literature: Ki of various compounds toward Sodium-dependent noradrenaline transporter (Homo sapiens, UniProt P23975).
readout.name: Ki (nM)

The examples below pair each entry with its known result.
C[C@H]1CNCCN1c1nc(-c2c(F)cccc2F)c2ccc(F)cc2n1 | 47.3
Fc1cccc(-c2nc(C3CCNCC3)nc3ccccc23)c1F | 3
Fc1ccc(-c2nc(N3CCNCC3)nc3cc(F)ccc23)c(Cl)c1 | 30.3
Fc1ccc(-c2ccc(OC(F)(F)F)cc2)c(CO[C@H]2CCNC2)c1 | 935
c1ccc(-c2ccc3c(c2)CCO3)c(CO[C@H]2CCNC2)c1 | 516
CCOc1cccc(F)c1OC[C@H]1CCCNC1 | 32
Fc1ccc(Oc2cccc(F)c2OC[C@H]2CCCNC2)cc1 | 1
Fc1ccc(OC[C@H]2CCCNC2)c(Oc2ccccc2)c1.O=C(O)/C=C/C(=O)O | 2
CN1CCC(c2nc(-c3ccccc3F)c3ccccc3n2)CC1 | 29.2

A: CC[C@H]1CNCCN1c1nc(-c2ccc(F)cc2F)c2ccccc2n1
B: CC1(COc2nn(-c3ccccc3F)c3ccccc23)CCCNC1 (centres unmarked)
Exercise: Could you tell me which of these two has the smaller Ki figure? First: A Second: B Please respond with the label that marks your chosen entry.
Key: A

* * *

pKi: −log10 of the molar value.
Collected from the literature: pKi of various compounds toward UniProt:P23975.
readout.name: pKi

The examples below pair each entry with its known result.
Clc1cccc(Oc2ncccc2OC[C@H]2CCCNC2)c1.O=C(O)/C=C/C(=O)O | 8.40
N#Cc1cccc(-c2ccc(F)cc2CO[C@H]2CCNC2)c1 | 6.32

a: Cc1ccc(Oc2nc(C)ccc2OC[C@H]2CCCNC2)c(Cl)c1
b: N=C(N)NCc1ccc(COCCF)c(Br)c1
Exercise: Could you tell me which of these two has the smaller pKi figure? First: a Second: b Please respond with the label that marks your chosen entry.
Key: b
(b: 5.27, a: 8.55)

* * *

Collected from the literature: Ki of various molecules toward Sodium-dependent noradrenaline transporter (Homo sapiens, UniProt P23975).

The examples below pair each entry with its known result.
Fc1cc(Cl)cc(F)c1O[C@H](C1CC1)[C@H]1CCNC1 | ≤ 10 nM
Fc1ccc(O[C@@H](C2CC2)[C@H]2CCNC2)c(Cl)c1 | ≤ 10 nM
CC(C)C[C@H](Oc1ccc(C(F)(F)F)cc1)[C@H]1CCNC1 | ≤ 10 nM
CCc1cc(F)ccc1O[C@@H](C1CC1)[C@H]1CCNC1 | ≤ 10 nM

Exercise: Query the reported Ki for Sodium-dependent noradrenaline transporter (Homo sapiens, UniProt P23975); item: CNCC[C@H](Oc1cccc(-n2nc3c(N(C)C)nnc(C)c3c2C)c1)c1ccccc1
Key: < 100 nM

Exercise: Query the reported Ki for Sodium-dependent noradrenaline transporter (Homo sapiens, UniProt P23975); item: CC[C@H](Oc1ccc(F)c(OC)c1F)[C@H]1CCNC1
Key: ≤ 100 nM

Exercise: Query the reported Ki for Sodium-dependent noradrenaline transporter (Homo sapiens, UniProt P23975); item: COc1cc(F)ccc1O[C@@H](C1CC1)[C@H]1CCNC1
Key: ≤ 10 nM

Exercise: Query the reported Ki for Sodium-dependent noradrenaline transporter (Homo sapiens, UniProt P23975); item: Cc1ccc2nc(N3CCNCC3)c(=O)n(-c3ccccc3)c2c1
Key: 82 nM

Exercise: Query the reported Ki for Sodium-dependent noradrenaline transporter (Homo sapiens, UniProt P23975); item: CC[C@H](Oc1cccnc1Oc1ccccc1)[C@H]1CCCNC1
Key: 3 nM

Exercise: Query the reported Ki for Sodium-dependent noradrenaline transporter (Homo sapiens, UniProt P23975); item: COc1ccc(-c2ccccc2CO[C@H]2CCNC2)cc1
Key: 301 nM

Exercise: Query the reported Ki for Sodium-dependent noradrenaline transporter (Homo sapiens, UniProt P23975); item: CC(C)[C@@H](Oc1cccc(Cl)c1Cl)[C@H]1CCNC1
Key: ≤ 10 nM

* * *

Collected from the literature: Ki of various compounds toward Sodium-dependent noradrenaline transporter (Homo sapiens).

CNC1CCN(c2nc(-c3c(F)cccc3F)c3ccccc3n2)C1 (centres unmarked) | 135 nM

Exercise: Query the reported Ki for Sodium-dependent noradrenaline transporter (Homo sapiens); item: CCC[C@@H](Oc1ccc(Cl)cc1C(F)(F)F)[C@@H]1CCNC1
Key: ≤ 100 nM

Exercise: Query the reported Ki for Sodium-dependent noradrenaline transporter (Homo sapiens); item: Fc1cccc(O[C@H](C2CCCCC2)[C@H]2CCNC2)c1Cl
Key: ≤ 10 nM

Exercise: Query the reported Ki for Sodium-dependent noradrenaline transporter (Homo sapiens); item: CCC[C@H](Oc1ccc(Cl)c(F)c1)[C@H]1CCNC1
Key: ≤ 10 nM

Exercise: Query the reported Ki for Sodium-dependent noradrenaline transporter (Homo sapiens); item: Cc1ccc(-c2ccc(F)cc2CO[C@H]2CCNC2)cc1C
Key: 112 nM

Exercise: Query the reported Ki for Sodium-dependent noradrenaline transporter (Homo sapiens); item: CCC[C@H](Oc1cc(Cl)cc(Cl)c1)[C@H]1CCNC1
Key: ≤ 10 nM

Exercise: Query the reported Ki for Sodium-dependent noradrenaline transporter (Homo sapiens); item: CCC[C@@H](Oc1ccc(Cl)cc1)[C@@H]1CCNC1
Key: ≤ 100 nM

Exercise: Query the reported Ki for Sodium-dependent noradrenaline transporter (Homo sapiens); item: Cc1ccccc1-c1nc(C2CCNCC2)nc2ccccc12
Key: 44.7 nM

Exercise: Query the reported Ki for Sodium-dependent noradrenaline transporter (Homo sapiens); item: CC[C@H](Oc1ccc(F)cc1Cl)[C@H]1CCNC1
Key: ≤ 10 nM

Exercise: Query the reported Ki for Sodium-dependent noradrenaline transporter (Homo sapiens); item: CCC[C@H](Oc1ccc(Cl)cc1C(F)(F)F)[C@H]1CCNC1
Key: ≤ 10 nM

Exercise: Query the reported Ki for Sodium-dependent noradrenaline transporter (Homo sapiens); item: Fc1cc(F)cc(-c2nc(N3CCNCC3)nc3ccccc23)c1
Key: 3.7 nM

Exercise: Query the reported Ki for Sodium-dependent noradrenaline transporter (Homo sapiens); item: Cc1nnc(N(C)C)c2nn(-c3cccc(OCC4CCNCC4)c3)c(C)c12
Key: ≥ 1000 nM

Exercise: Query the reported Ki for Sodium-dependent noradrenaline transporter (Homo sapiens); item: COc1c(F)ccc(O[C@@H](C2CC2)[C@H]2CCNC2)c1F
Key: ≤ 10 nM

Exercise: Query the reported Ki for Sodium-dependent noradrenaline transporter (Homo sapiens); item: CCOc1ccc(-n2nc3c(N4CC[C@H](NCc5cccc(OC)c5)C4)nnc(C)c3c2C)c(F)c1
Key: 500 to 1000 nM

Exercise: Query the reported Ki for Sodium-dependent noradrenaline transporter (Homo sapiens); item: CC[C@@H](Oc1c(Cl)ccc(C)c1F)[C@H]1CCNC1
Key: ≤ 10 nM
